# System: SK-MEL-28 melanoma
# test.summary: NCI-60 one-dose screen, 48 h
# condition.parameters: 10 µM unless noted
Compounds without any hit were thinned out: in the full panel of roughly 83,000, 20% have a hit. The source made the active and inactive calls. The calls were made as follows: active = growth percent below 10; inactive = the rest.
Possible outcomes: active, inactive

{"compound": "[N-]=[N+]=Nc1ncc(-c2ccc(C(F)(F)F)cc2)c(NC2CCCCCC2)n1", "label": "inactive"}
{"compound": "O=C(Nc1ccc(-n2cc(-c3ccncc3)c(-c3ccc(Cl)c(O)c3)n2)cc1)Nc1ccc(Cl)c(C(F)(F)F)c1", "label": "active"}
{"compound": "Cc1sc(NC(=O)c2ccc(C(C)(C)C)cc2)c(C(=O)O)c1C", "label": "inactive"}
{"compound": "OCC(O)C(O)CC1SCCS1 (stereo unspecified)", "label": "inactive"}
{"compound": "COc1cc2c(/C=C3\\C(=O)Nc4ccc(Br)cc43)c(Cl)n(C)c2cc1C", "label": "inactive"}
{"compound": "Brc1c(-c2ccncc2)nc2n1CCS2", "label": "inactive"}
